meta.source: patent US8212016B2

# TARGET SYSTEM: mouse NPC1L1 (Mus musculus, UniProt Q6T3U4, N476K)
# Construct: expressed in transfected cells
# EXPERIMENT SUMMARY: Fluorescence NPC1L1 binding assay, HEK-293 cells, fluorescent compound 2 as ligand
# CONDITION DETAILS: Mouse NPC1L1, competition with compound 2; read-out: Ki
MEASUREMENT TYPE: Ki (µM)
Numbers only here, please. The scale is µM.

Data request: Tell me reported Ki for O=C(O)[C@H]1O[C@@H](Oc2ccc([C@@H]3[C@@H](CC[C@H](O)c4ccc(F)cc4)C(=O)N3c3ccc(F)cc3)cc2)[C@H](O)[C@@H](O)[C@@H]1O [compound 4, glucuronidated ezetimibe] , tested with mouse NPC1L1 (Mus musculus, UniProt Q6T3U4, N476K).
Data returned: 9

Data request: Tell me reported Ki for O=C1[C@H](CC[C@H](O)c2ccc(F)cc2)[C@@H](c2ccc(O)cc2)N1c1ccc(F)cc1 [compound 3, ezetimibe] , tested with mouse NPC1L1 (Mus musculus, UniProt Q6T3U4, N476K).
Data returned: 5.4
